Recorded MFI, one value per entry.
target: T1, LILRA5; assay: flow cytometry, reporter cells
T1 construct: also called LILRA5 reporter cells
T1 sequence (chain, as listed by the source limits assumed): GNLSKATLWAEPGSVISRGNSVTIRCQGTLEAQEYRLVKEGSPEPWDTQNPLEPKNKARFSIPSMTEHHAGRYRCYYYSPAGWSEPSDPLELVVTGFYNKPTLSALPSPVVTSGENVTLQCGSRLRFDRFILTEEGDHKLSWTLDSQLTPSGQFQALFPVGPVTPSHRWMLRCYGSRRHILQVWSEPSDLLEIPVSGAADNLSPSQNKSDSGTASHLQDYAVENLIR
Lab note: jot down the number only; don't add units.

| binder | MFI |
| --- | --- |
| B2-17 (antibody, V domains shown, also called B2-17_HC; B2-17_LC) VH: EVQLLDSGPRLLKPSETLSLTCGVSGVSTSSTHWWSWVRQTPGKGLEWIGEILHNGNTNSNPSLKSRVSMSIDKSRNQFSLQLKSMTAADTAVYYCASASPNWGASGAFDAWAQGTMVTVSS VL: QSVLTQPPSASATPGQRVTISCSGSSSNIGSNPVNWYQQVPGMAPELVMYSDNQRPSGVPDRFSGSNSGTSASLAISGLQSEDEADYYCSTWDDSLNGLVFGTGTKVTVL | 10 |
| B2-7 (antibody, V domains shown, also called B2-7_HC; B2-7_LC) VH: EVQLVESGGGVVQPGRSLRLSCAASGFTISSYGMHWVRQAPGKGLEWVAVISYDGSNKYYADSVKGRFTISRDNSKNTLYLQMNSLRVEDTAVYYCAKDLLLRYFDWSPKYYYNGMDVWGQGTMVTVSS VL: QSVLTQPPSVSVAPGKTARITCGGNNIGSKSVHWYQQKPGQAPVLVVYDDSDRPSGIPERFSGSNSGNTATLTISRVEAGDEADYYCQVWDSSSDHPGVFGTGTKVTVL | 11 |
| B2-15 (antibody, V domains shown, also called B-15; B2-15_HC) VH: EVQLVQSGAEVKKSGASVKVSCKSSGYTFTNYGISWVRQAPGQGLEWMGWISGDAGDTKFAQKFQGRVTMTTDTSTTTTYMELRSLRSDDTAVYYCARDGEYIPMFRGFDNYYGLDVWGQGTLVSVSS VL: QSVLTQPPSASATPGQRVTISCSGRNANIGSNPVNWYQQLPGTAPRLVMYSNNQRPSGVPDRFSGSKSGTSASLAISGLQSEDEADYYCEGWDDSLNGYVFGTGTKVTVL | 11 |

Let us move to another entry and its MFI.
What does the data say about its MFI? Entry: B2-16 (antibody, V domains shown, also called B2-16_HC; B2-16_LC) VH: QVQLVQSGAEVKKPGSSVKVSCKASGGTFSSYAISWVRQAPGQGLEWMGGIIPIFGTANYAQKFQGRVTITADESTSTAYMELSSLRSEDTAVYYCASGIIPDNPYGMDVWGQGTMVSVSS VL: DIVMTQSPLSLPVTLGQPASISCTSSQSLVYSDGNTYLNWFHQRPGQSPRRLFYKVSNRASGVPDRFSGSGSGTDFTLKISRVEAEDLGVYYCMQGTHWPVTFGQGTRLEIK 12

Attribution: patent US20230068663A1
